Hello, the source for this data is patent US9556165B2, in case you need it.

Would you mind telling me the reported MIC of each entry?
Tested on: P. aeruginosa PAO1
Assay: MIC determination, broth microdilution (CLSI)
Type: cell-based
Conditions: Pseudomonas aeruginosa, PAO1, strain 6
One number for each entry, in µg/mL.

compound_structure=CC1(C)[C@H](NC(=O)/C(=N\O[C@H](COc2ccc(C(=N)NCCNc3ncccn3)cc2)C(=O)O)c2csc(N)n2)C(=O)N1OS(=O)(=O)O test_value=32
compound_structure=C[C@H]1[C@H](NC(=O)/C(=N\OCCOc2ccc(C(=N)N)cc2)c2csc(N)n2)C(=O)N1OCS(=O)(=O)O test_value=4
compound_structure=C[C@H]1[C@H](NC(=O)/C(=N\OCCOc2ccc(C(=N)N)cc2)c2nsc(N)n2)C(=O)N1S(=O)(=O)O test_value=4
compound_structure=CC1(C)[C@H](NC(=O)/C(=N\OCCOc2ccc(C(=N)N)c(O)c2)c2csc(N)n2)C(=O)N1OS(=O)(=O)O test_value=4
compound_structure=C[C@H]1[C@H](NC(=O)/C(=N\OCCOc2ccc(C(=N)N)cc2N)c2csc(N)n2)C(=O)N1S(=O)(=O)O test_value=16

Query block: Quickly give me recorded MIC for C[C@H]1[C@H](NC(=O)/C(=N\OCCOc2ccc(C(=N)NNC=O)cc2)c2csc(N)n2)C(=O)N1S(=O)(=O)O
Result block: 8
